- details: in ethyl acetate, 323.2 K
measuredParameter: solubility (mole fraction)
Give the figure only, with no unit attached.

Summary for this molecule, CC(C)CCC[C@@H](C)[C@H]1CC[C@H]2[C@@H]3CC=C4C[C@@H](O)CC[C@]4(C)[C@H]3CC[C@]12C : solubility (mole fraction) is 0.033

* * *

- details: in anisole, 313.2 K
measuredParameter: solubility (mole fraction)
Give the figure only, with no unit attached.

Summary for this compound, CC(C)CCC[C@@H](C)[C@H]1CC[C@H]2[C@@H]3CC=C4C[C@@H](O)CC[C@]4(C)[C@H]3CC[C@]12C : solubility (mole fraction) is 0.0325

* * *

- details: in n-heptane, 313.2 K
measuredParameter: solubility (mole fraction)
Give the figure only, with no unit attached.

Summary for this compound, CC(C)CCC[C@@H](C)[C@H]1CC[C@H]2[C@@H]3CC=C4C[C@@H](O)CC[C@]4(C)[C@H]3CC[C@]12C : solubility (mole fraction) is 0.00863

These data points were gathered from BigSolDB 2.1.
